- Test system: MOLM14 F691L cells
- TEST_NAME: MOLM14 F691L cell viability assay (Cell Titer Glo)
- Format: cell-based
- RUN_PARAMETERS: Homo sapiens, MOLM-14; cell viability, Cell Titer Glo, 48 hours; read-out: MOLM14 F691L IC50
For each of the compounds below, state its IC50.
Give bare numbers, in nM.

Consider the reported IC50 for these compounds:
COMPOUND	RECORDED_ENDPOINT	UNIT_ABBREV	OBS_VALUE
CC(C)(O)c1cn2c(-c3nc(N[C@H]4CNC[C@@H]4F)ncc3F)cnc2cn1 [Compound 98a]	IC50	nM	2520
COc1cc2ncc(-c3nc(N[C@@H]4CCCNC4)ncc3F)n2nc1C1CCC1 [Compound 53a]	IC50	nM	10
COc1cc2ncc(-c3nc(N[C@@H]4CCCNC4)ncc3Cl)n2nc1C1CC1 [Compound 102a]	IC50	nM	71
COc1cc2ncc(-c3nc(N[C@@H]4CCCNC4)ncc3F)n2nc1C1CC2(CCC2)C1 [Compound 59a]	IC50	nM	45
COc1cc2ncc(-c3nc(N[C@H]4CNC[C@@H]4F)ncc3F)n2nc1C1CCC1 [Compound 52a]	IC50	nM	45

Fill in IC50 for each of the 2 compounds listed.
1. COc1cc2ncc(-c3nc(N[C@H]4CNC[C@@H]4F)ncc3F)n2nc1N1CCOCC1 [Compound 119a]
2. COc1cc2ncc(-c3nc(N[C@H]4CNCC[C@@H]4F)ncc3F)n2nc1N1CCS(=O)(=O)CC1 [Compound 122a]

1: 45; 2: 127

Tell me IC50 reported for COc1cc2ncc(-c3nc(N[C@@H]4CCCNC4)ncc3F)n2nc1C1COC1 [Compound 94a]
40

###

- TARGET_UNDER_TEST: IRAK4 (Homo sapiens, UniProt Q9NWZ3)
- Sequence (Q9NWZ3 whole entry): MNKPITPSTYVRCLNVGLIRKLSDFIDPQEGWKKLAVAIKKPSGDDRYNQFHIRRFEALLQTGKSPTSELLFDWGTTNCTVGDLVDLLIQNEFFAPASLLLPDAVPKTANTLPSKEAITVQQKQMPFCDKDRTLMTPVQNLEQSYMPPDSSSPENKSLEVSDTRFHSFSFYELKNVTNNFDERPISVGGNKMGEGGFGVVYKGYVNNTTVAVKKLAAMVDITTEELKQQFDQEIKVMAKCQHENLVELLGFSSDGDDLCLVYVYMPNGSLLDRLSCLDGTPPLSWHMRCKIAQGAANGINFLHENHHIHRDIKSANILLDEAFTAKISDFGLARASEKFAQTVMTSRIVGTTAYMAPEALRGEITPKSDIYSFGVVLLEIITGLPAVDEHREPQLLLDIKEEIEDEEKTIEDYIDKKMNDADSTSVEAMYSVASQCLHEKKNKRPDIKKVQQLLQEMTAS
- TEST_NAME: RBC HotSpot Kinase Assay, IRAK4
- Assay type: biochemical
- Design: purchased Reaction Biology (RBC HotSpot)
- RUN_PARAMETERS: isolated kinase enzyme, 33P-ATP, P81 filter-binding
RECORDED_ENDPOINT: pIC50
Answers are plain numbers, as −log10 of the molar value.

MOLECULE	pIC50
COc1cc2ncc(-c3ccnc(N[C@H]4CNC[C@@H]4F)n3)n2nc1C1CC(C)(C)C1 [Compound 80a]	7.77
COc1cc2ncc(-c3nc(N[C@H]4CNCC[C@@H]4F)ncc3Cl)n2nc1C1CC1 [Compound 103a]	8.52

Fill in pIC50 for each of the 7 molecules listed.
1. COc1cc2ncc(-c3ccnc(N[C@H]4CNCC[C@@H]4F)n3)n2nc1C1CC(F)(F)C1 [Compound 19a]
2. COc1cc2ncc(-c3nc(N[C@H]4CNCC[C@@H]4F)ncc3F)n2nc1C1CCCCC1 [Compound 66a]
3. C[C@@](O)(c1ccc2ncc(-c3ccnc(N[C@H]4CNCC[C@@H]4F)n3)n2c1)C(F)(F)F (single isomer, unassigned) [Compound 27a]
4. COc1cc2ncc(-c3nc(N[C@H]4CNC[C@@H]4F)ncc3F)n2nc1C12CC(C1)C2 [Compound 67a]
5. COc1cnc(N[C@H]2CNC[C@@H]2F)nc1-c1cnc2cc(OC)c(C3CC3)nn12 [Compound 104a]
6. COc1cc2ncc(-c3ccnc(N[C@@H]4CCCNC4)n3)n2nc1C1CC2(CCC2)C1 [Compound 76a]
7. COc1cc2ncc(-c3nc(N[C@@H]4CCCNC4)ncc3Cl)n2nc1C1CC1 [Compound 102a]

7.89
9.22
9.15
9.05
7.60
7.68
8.70

###

- TARGET_UNDER_TEST: UniProt P36888
- TEST_NAME: RBC HotSpot Kinase Assay, FLT3
- Assay type: biochemical
- Parameters: purchased Reaction Biology (RBC HotSpot)
- RUN_PARAMETERS: isolated kinase enzyme, 33P-ATP, P81 filter-binding
RECORDED_ENDPOINT: IC50

COMPOUND	IC50
COc1cc2ncc(-c3nc(N[C@@H]4CCCNC4)ncc3F)n2nc1N1CCOCC1 [Compound 120a]	< 0.5 nM
COc1cc2ncc(-c3nc(N[C@@H]4CCCNC4)ncc3F)n2nc1C(C)(C)O [Compound 43a]	1 nM
COc1cc2ncc(-c3nc(N[C@H]4CNC[C@@H]4F)ncc3F)n2nc1C1CC(C)(C)C1 [Compound 55a]	< 0.5 nM

Here's the next entry for you.
Tell me IC50 reported for COc1cc2ncc(-c3nc(N[C@H]4CNCC[C@@H]4F)ncc3F)n2nc1C1CCCC1 [Compound 63a]
< 0.5 nM

###

- TARGET_UNDER_TEST: IRAK1 (Homo sapiens, UniProt P51617)
- Sequence (P51617 whole entry): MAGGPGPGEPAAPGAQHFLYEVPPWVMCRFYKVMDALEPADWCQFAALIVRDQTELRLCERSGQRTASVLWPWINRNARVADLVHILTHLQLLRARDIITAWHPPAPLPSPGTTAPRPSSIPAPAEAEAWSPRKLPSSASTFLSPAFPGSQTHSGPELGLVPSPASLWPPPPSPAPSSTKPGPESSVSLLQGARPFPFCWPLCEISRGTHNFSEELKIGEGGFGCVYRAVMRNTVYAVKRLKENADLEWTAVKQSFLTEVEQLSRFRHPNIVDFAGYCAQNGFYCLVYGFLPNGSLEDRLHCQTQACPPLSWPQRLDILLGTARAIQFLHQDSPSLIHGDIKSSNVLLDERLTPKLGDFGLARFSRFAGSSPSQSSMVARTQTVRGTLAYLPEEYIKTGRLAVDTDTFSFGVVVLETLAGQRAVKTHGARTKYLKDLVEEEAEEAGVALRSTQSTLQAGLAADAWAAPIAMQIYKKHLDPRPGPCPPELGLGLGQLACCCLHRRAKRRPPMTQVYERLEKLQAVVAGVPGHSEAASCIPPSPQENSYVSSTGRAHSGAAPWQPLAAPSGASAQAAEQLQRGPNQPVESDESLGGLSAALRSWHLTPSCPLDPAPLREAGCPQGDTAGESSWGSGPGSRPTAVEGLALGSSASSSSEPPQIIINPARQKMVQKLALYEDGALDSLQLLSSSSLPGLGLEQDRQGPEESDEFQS
- TEST_NAME: RBC HotSpot Kinase Assay, IRAK1
- RUN_PARAMETERS: isolated kinase enzyme, 33P-ATP, P81 filter-binding
- Source text: This assay uses the isolated kinase enzyme. […] Unlike kinase binding assays that measure competition for ATP, the HotSpot Kinase Assay is a functional assay that measures catalytic activity; as such it measures relative functional potency regardless of the mechanism of enzyme inhibition. This assay uses the form of the various enzymes that are easiest to express, which may not necessarily be the form of the enzyme that exist in the cell. […]
RECORDED_ENDPOINT: pIC50
One number for each entry, as −log10 of the molar value.

Consider the reported pIC50 for these compounds:
COMPOUND	pIC50
COc1cc2ncc(-c3ccnc(N[C@H]4CNCC[C@@H]4F)n3)n2nc1C1CCCC1 [Compound 85a]	8.15
COc1cc2ncc(-c3nc(N[C@H]4CNC[C@@H]4F)ncc3F)n2nc1C1CC(F)(F)C1 [Compound 50a]	8.52
COc1cc2ncc(-c3nc(N[C@@H]4CCCNC4)ncc3F)n2nc1C1CCC1 [Compound 53a]	9.00
COc1cc2ncc(-c3ccnc(N[C@@H]4CCCNC4)n3)n2nc1C12CC(C1)C2 [Compound 90a]	7.07
FC(F)COc1cc2ncc(-c3ccnc(N[C@@H]4CCCNC4)n3)n2nc1C1CC1	6.88
COc1cc2ncc(-c3ccnc(N[C@H]4CNCC[C@@H]4F)n3)n2nc1C1CC(C)(C)C1 [Compound 82a]	6.76

Fill in pIC50 for each of the 7 compounds listed.
1. COc1cc2ncc(-c3ccnc(N[C@H]4CNCC[C@@H]4F)n3)n2nc1C1CCCCC1 [Compound 88a]
2. COc1cc2ncc(-c3nc(N[C@H]4CNCC[C@@H]4F)ncc3F)n2nc1C1CC1
3. COc1cc2ncc(-c3nc(N[C@@H]4CCCNC4)ncc3F)n2nc1N1CCCS1(=O)=O [Compound 110a]
4. COc1cc2ncc(-c3nc(N[C@H]4CNCC[C@@H]4F)ncc3F)n2nc1C12CC(C1)C2 [Compound 69a]
5. COc1cc2ncc(-c3ccnc(N[C@@H]4CCCNC4)n3)n2nc1C(C)(C)O [Compound 42a]
6. CC(O)(c1cn2c(-c3nc(N[C@@H]4CCCNC4)ncc3F)cnc2cn1)C(F)(F)F (single isomer, unassigned) [Compound 132a]
7. COc1cc2ncc(-c3ccnc(N[C@H]4CNC[C@@H]4F)n3)n2nc1C1CC(F)(F)C1 [Compound 20a]

7.89
9.00
7.64
9.05
5.49
8.52
6.77

Fill in pIC50 for each of the 2 compounds listed.
1. COc1cc2ncc(-c3ccnc(N[C@@H]4CCCNC4)n3)n2nc1C1CCCCC1 [Compound 87a]
2. COc1cc2ncc(-c3ccnc(N[C@@H]4CCCNC4)n3)n2nc1C1CCCC1 [Compound 84a]

7.59
7.74

###

- TARGET_UNDER_TEST: IRAK1 (Homo sapiens)
- Construct: purchased Reaction Biology (RBC HotSpot)
- TEST_NAME: DiscoverX KINOMEscan competition binding assay, IRAK1
- RUN_PARAMETERS: 11-point 3-fold dilution
For each of the compounds below, state its log10(Kd).
// units: nM (pre-log); metric: Kd; scale: log10

COMPOUND	log10(Kd)
CC(C)(O)c1ccc2ncc(-c3nc(N[C@H]4CNCC[C@@H]4F)ncc3F)n2c1 [Compound 46a]	-0.15
FC(F)COc1cc2ncc(-c3ccnc(N[C@H]4CNCC[C@@H]4F)n3)n2nc1C1CC1 [Compound 4a]	0.89
CC(C)(O)c1cn2c(-c3nc(N[C@H]4CNCC[C@@H]4F)ncc3F)cnc2cn1 [Compound 100a]	0.65
COc1cc2ncc(-c3nc(N[C@H]4CNCC[C@@H]4F)ncc3F)n2nc1C(C)(C)O [Compound 45a]	0.20
COc1cc2ncc(-c3nc(N[C@H]4CNCC[C@@H]4F)ncc3F)n2nc1N1CCCS1(=O)=O [Compound 112a]	0.04

Tell me log10(Kd) reported for COc1cc2ncc(-c3nc(N[C@H]4CNCC[C@@H]4F)ncc3F)n2nc1C1COC1 [Compound 92a]
-0.31

###

- TARGET_UNDER_TEST: FLT3 ITD, D835V (Homo sapiens, UniProt P36888, D835V, form not given)
- Construct: fused on or other part: DNA tag for qPCR detection (kinase-tagged T7 phage, or made in HEK-293 cells and then tagged with DNA)
- TEST_NAME: DiscoverX KINOMEscan competition binding assay, FLT3 ITD, D835V
- RUN_PARAMETERS: 11-point 3-fold dilution
pKd: −log10 of the molar value.
RECORDED_ENDPOINT: pKd

Consider the reported pKd for these compounds:
COMPOUND	OBS_VALUE
COc1cc2ncc(-c3nc(N[C@H]4CNCC[C@@H]4F)ncc3F)n2nc1C(C)(C)O [Compound 45a]	9.64
CC(C)(O)c1cn2c(-c3nc(N[C@H]4CNCC[C@@H]4F)ncc3F)cnc2cn1 [Compound 100a]	9.72
CC(C)(O)c1ccc2ncc(-c3nc(N[C@H]4CNCC[C@@H]4F)ncc3F)n2c1 [Compound 46a]	> 9.77
COc1cc2ncc(-c3nc(N[C@H]4CNCC[C@@H]4F)ncc3F)n2nc1N1CCCS1(=O)=O [Compound 112a]	> 9.77
FC(F)COc1cc2ncc(-c3ccnc(N[C@H]4CNCC[C@@H]4F)n3)n2nc1C1CC1 [Compound 4a]	> 9.77

Fill in pKd for each of the 2 compounds listed.
1. COc1cc2ncc(-c3nc(N[C@H]4CNCC[C@@H]4F)ncc3F)n2nc1C1CC1 [Compound 1a]
2. COc1cc2ncc(-c3nc(N[C@H]4CNCC[C@@H]4F)ncc3F)n2nc1C1COC1 [Compound 92a]

> 9.77
> 9.77

Reference for the values: patent US20260226048A1
